- experimental target: Mouse B6 (C57Bl/6) MHC class I antigens on RMA-S cells (D^b or K^b) (mouse (C57Bl/6))
- assay details: RMA-S MHC stabilisation, peptide 25 ug/ml, FITC anti-Db or anti-Kb, flow cytometry (MFI increase over medium alone)
Measured Binding Affinity to Mouse MHC Class I (% increase of Db or Kb on RMA-S cells) values are reported for all entries that follow.
reported property: Binding Affinity to Mouse MHC Class I (% increase of Db or Kb on RMA-S cells) (%)

| binder | quantitative readout |
| --- | --- |
| YSSDNLYQM [WT1 peptide p221-229 (…)] | 0.8 |
| ALLPAVPSL [WT1 peptide human p10-18 (…)] | 2.2 |
| QMTSQLECM [WT1 peptide p228-236 (…)] | 1.2 |
| CMTWNQMNL [WT1 peptide p235-243 (…)] | 33.6 |
| SCLESQPAI [WT1 peptide human p136-144 (…)] | 52 |
| GCNKRYFKL [WT1 peptide p329-337 (…)] | 1.2 |
| NLYQMTSQL [WT1 peptide p225-233 (…)] | 5.8 |

Where these numbers come from: patent US20030082194A1
